In this section we review reported nuclei count values for a set of compounds.
protocolDescription: endothelial E-selectin expression blockers – imaging, HUVEC, immunofluorescence, MLSMR starter and 10KST1 sets, primary screen (AID 487);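 further: 100% = median nuclei count of all wells on the same plate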
measurementSetup: HUVEC TNFalpha-induced E-selectin immunofluorescence imaging, at 2 µM; measured here: cell number, toxicity

Worked examples follow.
>>> print(df.to_string())
                                   compound      endpoint  testvalue
0  CCS(=O)(=O)Nc1ccc(C(=O)CC2(O)C(=O)Nc3ccccc32)cc1 (stereo not given)  nuclei count       107%
1  O=C1CC(Cc2ccccc2)C(=O)N1CCc1ccc2c(c1)OCO2 (stereo not given)  nuclei count       127%

Looking for the measured nuclei count of CC1=C(C(N)=O)C(c2ccccn2)n2nc(-c3ccccc3Cl)nc2N1 (stereo not given) , can you help?
111%

What do you get for CN=C(C)C1=C(O)C(C(=O)OC)C(C)(C)CC1=O (stereo not given) ?
122%

What do you get for `O=C(NCCN1CCCCCC1)c1ccc(N2CCCC2=O)cc1` ?
24.3%
